Biological target: memapsin 1 (Homo sapiens)
Sequence (Q9Y5Z0 63-518): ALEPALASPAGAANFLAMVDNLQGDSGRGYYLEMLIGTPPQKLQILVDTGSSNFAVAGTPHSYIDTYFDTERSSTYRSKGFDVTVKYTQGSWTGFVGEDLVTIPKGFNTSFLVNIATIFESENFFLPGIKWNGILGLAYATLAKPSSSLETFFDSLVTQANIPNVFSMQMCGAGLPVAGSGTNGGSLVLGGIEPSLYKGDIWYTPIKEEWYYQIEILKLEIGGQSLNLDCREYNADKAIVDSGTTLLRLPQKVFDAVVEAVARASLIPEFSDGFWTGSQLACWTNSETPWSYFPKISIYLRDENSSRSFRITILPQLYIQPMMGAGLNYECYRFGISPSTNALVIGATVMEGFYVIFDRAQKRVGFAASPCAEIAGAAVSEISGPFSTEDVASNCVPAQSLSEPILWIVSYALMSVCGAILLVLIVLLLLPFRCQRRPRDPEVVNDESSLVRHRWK
Experiment: Inhibition of memapsin 1 beta-secretase activity (substrate peptide ELDLAVEFWHDR, MALDI-TOF)
Type: biochemical
Settings: read-out: M1Ki
pKi: −log10 of the molar value.
assay metric: pKi

- Cc1csc(CN(C(=O)c2cccc(C(=O)N[C@@H](Cc3ccccc3)[C@H](O)CNCc3cccc(C(F)(F)F)c3)c2)C2CC2)n1 [Compound 29]: 6.30 to 6.52
- C=Cc1cc(C(=O)N[C@@H](Cc2ccccc2)[C@H](O)CNCc2cccc(OC)c2)cc(C(=O)N(C)Cc2nc(C)cs2)c1 [Compound 21]: < 6.30
- Cc1csc([C@@H](C)N(C)C(=O)c2cccc(C(=O)N[C@@H](Cc3ccccc3)[C@H](O)CNCc3cncc(C(C)C)c3)c2)n1 [Compound 82]: 6.30 to 6.52
- COc1cccc(CNC[C@@H](O)[C@H](Cc2ccccc2)NC(=O)c2cc(C(N)=O)cc(C(=O)N[C@H](C)c3ccccc3)c2)c1 [Compound 91]: > 6.52
- Cc1cc(C(=O)N[C@@H](Cc2ccccc2)[C@H](O)CNCc2cncc(C(C)C)c2)cc(C(=O)N(C)Cc2nc(C)cs2)c1 [Compound 32]: > 6.52
- COc1cccc(CNC[C@@H](O)[C@H](Cc2ccccc2)NC(=O)c2cc(OC)cc(C(=O)N(C)Cc3nc(C)cs3)c2)c1 [Compound 3]: 6.30 to 6.52
- Cc1csc(CN(C)C(=O)c2cc(C(=O)N[C@@H](Cc3ccccc3)[C@H](O)CNCc3cncc(C(C)C)c3)cc(-c3ncco3)c2)n1 [Compound 170]: > 6.52
- C[C@@H](NC(=O)c1cc(C(=O)N[C@@H](Cc2ccccc2)[C@H](O)CNCc2cccc(Cl)c2)cc(N(C)S(C)(=O)=O)c1)c1ccccc1 [Compound 86]: > 6.52
- COc1cc(C(=O)N[C@@H](Cc2ccccc2)[C@H](O)CNCc2cncc(C(C)C)c2)cc(C(=O)N(C)Cc2nc(C)cs2)c1 [Compound 40]: > 6.52
- Cc1csc(CN(C)C(=O)c2cccc(C(=O)N[C@@H](Cc3cc(F)cc(F)c3)[C@H](O)CNCc3cncc(C(C)C)c3)c2)n1 [Compound 208]: > 6.52
- Cc1csc(CN(C)C(=O)c2cccc(C(=O)N[C@@H](Cc3ccccc3)[C@H](O)CNCc3cc(CS(C)(=O)=O)cc(C(C)C)c3)c2)n1 [Compound 228]: 6.30 to 6.52
- C[C@@H](NC(=O)c1cc(C(=O)N[C@@H](Cc2ccccc2)[C@H](O)CNCc2cncc(C(C)(C)F)c2)cc(N(C)S(C)(=O)=O)c1)c1ccccc1 [Compound 89]: > 6.52

Source: patent US20100286145A1
